# maps each entry to its log10 of IC50
# Target desc: Cyclooxygenase-1 (Homo sapiens)
# Construct: endogenous in cells; host or cells: human platelets isolated over a Percoll gradient
# Sequence (P23219 24-599): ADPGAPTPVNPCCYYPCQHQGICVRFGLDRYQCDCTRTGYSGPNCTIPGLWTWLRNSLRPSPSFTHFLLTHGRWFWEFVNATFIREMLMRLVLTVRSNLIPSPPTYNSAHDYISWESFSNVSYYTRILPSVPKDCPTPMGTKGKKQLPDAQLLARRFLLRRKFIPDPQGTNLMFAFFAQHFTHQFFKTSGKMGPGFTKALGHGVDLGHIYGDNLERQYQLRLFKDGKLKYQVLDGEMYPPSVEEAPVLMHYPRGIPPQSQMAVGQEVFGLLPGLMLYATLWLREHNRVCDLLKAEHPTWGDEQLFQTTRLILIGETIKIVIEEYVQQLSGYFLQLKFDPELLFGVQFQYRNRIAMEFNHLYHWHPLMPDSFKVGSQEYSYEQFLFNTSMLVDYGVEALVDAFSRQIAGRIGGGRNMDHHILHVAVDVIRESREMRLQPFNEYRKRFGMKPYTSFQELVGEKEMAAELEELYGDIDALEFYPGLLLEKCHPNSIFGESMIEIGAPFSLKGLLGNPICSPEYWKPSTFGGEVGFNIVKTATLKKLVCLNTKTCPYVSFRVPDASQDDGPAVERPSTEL
# Assay protocol: Inhibition of cyclooxygenase-1: prostaglandin E2 formed from human platelets after calcium ionophore, ELISA
# Assay type: cell-based
# Particulars: PGE2, read-out: IC50 COX-1
# Protocol: Test System for Determination of the Inhibition of Cyclooxygenase-1 In this test system, the amount of prostaglandin E2 formed from human platelets after addition of calcium ionophore is determined by means of ELISA. In this process, the platelets are obtained after centrifugation over a discontinuous Percoll® gradient. The enzyme reaction and the determination of the metabolites formed is carried out in principle as in the determination of 5-lipoxygenase inhibition. […]
Friendly reminder: values = log10 of IC50, unit nM.

The cases that follow already have their log10 of IC50 on record.
# input compound: `CC1(C)Cn2c(CC(=O)O)c(-c3ccc(Cl)cc3)c(-c3ccccc3)c2C1=O` ; wanted: its log10 of IC50
1.66

# input compound: COC1c2c(-c3ccccc3)c(-c3ccc(Cl)cc3)c(C)n2CC1(C)C (centres unmarked) ; wanted: its log10 of IC50
2.70

# input compound: `CC1(C)Cn2cc(-c3ccc(Cl)cc3)c(-c3ccccc3)c2C1=O` ; wanted: its log10 of IC50
2.98

# input compound: CC1(C)Cc2c(-c3ccccc3)c(-c3ccc(Cl)cc3)c(CC(=O)O)n2C1 [ML 3000, reference compound] ; wanted: its log10 of IC50
2.32

Kindly review the next compound as well.
# input compound: COC1c2c(-c3ccccc3)c(-c3ccc(Cl)cc3)c(CC(=O)O)n2CC1(C)C (centres unmarked) ; wanted: its log10 of IC50
1.78
